The reported measurements were obtained from paper PMC9611449.

As shown below, each of these compounds has a reported pIC50 value.
target.system: Collagenase from Clostridium histolyticum
method.description: Collagenase inhibition assay (FALGPA substrate)
Type: biochemical
measurement.parameters: mean ± SD of three independent experiments
Note: pIC50 values are expressed as the negative base-10 logarithm of concentration in M.

In [3]: df
Out[3]:
                                   compound  measured
0  O=c1oc2ccc3ccccc3c2cc1-c1ccc(O)cc1 [Compound 13, 3-(4′-Hydroxyphenyl)benzo[f]coumarin]      4.01

Q: Param item = O=C(O[C@@H]1Cc2c(O)cc(O)cc2O[C@@H]1c1cc(O)c(O)c(O)c1)c1cc(O)c(O)c(O)c1 [Epigallocatechin gallate, reference compound] ; retrieve measured pIC50.
Ans: 3.92

Q: Param item = O=c1oc2cc(O)cc(O)c2cc1-c1ccc(Br)cc1 [Compound 1, 3-(4′-Bromophenyl)-5,7-dihydroxycoumarin] ; retrieve measured pIC50.
Ans: 3.91

Q: Param item = `O=c1oc2cc(O)c(O)cc2cc1-c1cccc(O)c1` ; retrieve measured pIC50.
Ans: 3.84

Q: Param item = O=c1oc2c(O)c(O)ccc2cc1-c1cccc(Br)c1 [Compound 8, 3-(3′-Bromophenyl)-7,8-dihydroxycoumarin] ; retrieve measured pIC50.
Ans: 3.91

----------
As shown below, each of these molecules has a reported IC50 value.
target.system: mushroom tyrosinase
method.description: Tyrosinase inhibition assay (L-DOPA substrate)
Format: biochemical
measurement.parameters: mean ± SD of three independent experiments

Sample answers from the record:
In [3]: df
Out[3]:
                                   molecule  property_label  measured
0  O=c1oc2c(O)c(O)ccc2cc1-c1ccccc1Br [Compound 9, 3-(2′-Bromophenyl)-7,8-dihydroxycoumarin]            IC50   > 50 µM
1     O=c1oc2ccc3ccccc3c2cc1-c1ccc(O)c(O)c1            IC50   > 50 µM
2  O=c1oc2cc(O)c(O)cc2cc1-c1ccc(Br)cc1 [Compound 4, 3-(4′-Bromophenyl)-6,7-dihydroxycoumarin]            IC50   39.9 µM

Moving on to another molecule below.
Q: Param item = `O=c1oc2ccc3ccccc3c2cc1-c1cc(O)cc(O)c1` ; retrieve measured IC50.
Ans: > 50 µM

----------
target.system: mushroom tyrosinase
method.description: Tyrosinase inhibition assay (L-DOPA substrate)
Type: biochemical
measurement.parameters: mean ± SD of three independent experiments
Protocol: Since the compounds were dissolved in DMSO, in the assays carried out without compounds, DMSO was added to the reaction mixture as blank control. […] Data from activity experiments were recorded using an Ultrospec 2100 spectrophotometer (Biochrom Ltd., Cambridge, UK). The inhibition of tyrosinase was monitored by using DOPA as substrate. The reaction solution contained phosphate buffer (25 mM, pH 6.8) and mushroom tyrosinase (100 U/mL), with or without test samples.
property.label: IC50

Q: Param item = `O=c1oc2cc(O)c(O)cc2cc1-c1ccccc1O` ; retrieve measured IC50.
Ans: > 50 µM

Q: Param item = O=c1oc2ccc3ccccc3c2cc1-c1cccc(O)c1 [Compound 14, 3-(3′-Hydroxyphenyl)benzo[f]coumarin] ; retrieve measured IC50.
Ans: > 50 µM

Q: Param item = O=c1oc2ccc3ccccc3c2cc1-c1ccccc1O [Compound 15, 3-(2′-Hydroxyphenyl)benzo[f]coumarin] ; retrieve measured IC50.
Ans: > 50 µM
